Data origin: patent US20180325889A1

Provide the reported pIC50 of each item.
Biological target: human IDO1/HEK293 cells (Homo sapiens, UniProt P14902)
Sequence (P14902 whole entry): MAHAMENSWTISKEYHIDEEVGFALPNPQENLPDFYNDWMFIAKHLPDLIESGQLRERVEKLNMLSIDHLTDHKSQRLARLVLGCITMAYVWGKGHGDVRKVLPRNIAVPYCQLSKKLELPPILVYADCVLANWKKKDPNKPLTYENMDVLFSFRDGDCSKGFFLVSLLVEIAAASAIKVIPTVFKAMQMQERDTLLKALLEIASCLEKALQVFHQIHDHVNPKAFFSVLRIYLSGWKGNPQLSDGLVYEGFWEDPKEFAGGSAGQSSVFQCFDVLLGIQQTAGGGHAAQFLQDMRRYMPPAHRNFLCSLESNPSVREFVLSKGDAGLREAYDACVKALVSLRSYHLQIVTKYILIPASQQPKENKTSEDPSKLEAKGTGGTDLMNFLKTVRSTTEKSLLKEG
Experiment: HEK Human IDO-1 cell-based IDO inhibition assay (kynurenine production)
Settings: HEK293 cells stably expressing human IDO1, 20 hours incubation, absorbance at 490 nm; read-out: HEK Human IDO-1 Bio Activity (IDO IC50)
pIC50: −log10 of the molar value.

Entry CCC(NC(=O)c1ccc(-c2ccccc2)cc1)C1CCC(c2ccnc3ccc(F)cc23)CC1 (stereo not drawn) : reported pIC50 = ?
> 7.30

Entry `COc1cccc(C(=O)N[C@H](C)[C@H]2CC[C@@H](c3ccnc4ccc(F)cc43)CC2)c1` : reported pIC50 = ?
> 7.30

Entry `C[C@@H](NC(=O)c1ccc(-c2cncnc2)cc1)[C@H]1CC[C@@H](c2ccnc3ccc(F)cc32)CC1` : reported pIC50 = ?
> 7.30

Entry CC(NC(=O)c1ccc(Cl)cc1)C1CCC(c2ccnc(C(F)(F)F)c2)CC1 (stereo not drawn) [Example 211] : reported pIC50 = ?
> 6.60

Entry CCC(NC(=O)c1ccc(Cl)cc1)[C@H]1CC[C@@H](c2ccnc3ccc(C(F)(F)F)cc32)CC1 (stereo partly drawn) : reported pIC50 = ?
> 7.30

Entry `CCOc1ccc(C(=O)N[C@H](C)[C@H]2CC[C@@H](c3ccnc4ccc(F)cc43)CC2)nc1` : reported pIC50 = ?
> 7.30

Entry `O=C(Nc1ccc(Cl)cc1F)N[C@H]1CC[C@H](c2ccnc3ccc(F)cc32)CC1` : reported pIC50 = ?
> 7.30

Entry `C[C@@H](NC(=O)c1ccc(-c2cn(C)cn2)cc1)[C@H]1CC[C@@H](c2ccnc3ccc(F)cc32)CC1` : reported pIC50 = ?
> 7.30

Entry `C[C@@H](NC(=O)c1ccc(-c2cscn2)cc1)[C@H]1CC[C@@H](c2ccnc3ccc(F)cc32)CC1` : reported pIC50 = ?
> 7.30

Entry `Cc1cccc(S(=O)(=O)N[C@H](C)[C@H]2CC[C@@H](c3ccnc4ccc(F)cc43)CC2)c1` : reported pIC50 = ?
> 5.70

Entry CC(NC(=O)c1ccc(Cl)cc1)C1CCC(c2ccnc3ccnn23)CC1 (stereo not drawn) : reported pIC50 = ?
> 6.60

Entry CCC(NC(=O)c1ccc(Cl)cc1)C1CCC(c2cccc(C(F)F)n2)CC1 (single isomer, unassigned) [Example 231b] : reported pIC50 = ?
> 5.70

Entry `O=C(NCC1CCN(c2ccnc3ccc(F)cc23)CC1)c1cccc(Cl)c1` : reported pIC50 = ?
> 5.70

Entry Cc1c(C2CCC(C(C)NC(=O)c3ccc(Cl)cc3)CC2)ccnc1F (stereo not drawn) [Example 158a] : reported pIC50 = ?
> 7.30

Entry `C[C@@H](NC(=O)c1ccc(Cl)c(Cl)c1)[C@H]1CC[C@@H](c2ccnc3ccc(F)cc32)CC1` : reported pIC50 = ?
> 7.30

###

Provide the reported IC50 of each item.
Target: human IDO1/HEK293 cells (Homo sapiens)
Experiment: HEK Human IDO-1 cell-based IDO inhibition assay (kynurenine production)
Settings: HEK293 cells stably expressing human IDO1, 20 hours incubation, absorbance at 490 nm; read-out: HEK Human IDO-1 Bio Activity (IDO IC50)

Entry `C=CC[C@@H](NC(=O)c1ccc(-c2ccccc2)cc1)[C@H]1CC[C@@H](c2ccnc3ccc(F)cc32)CC1` : reported IC50 = ?
< 2 µM

Entry Cc1cc(C2CCC(C(C)NC(=O)c3ccc(Cl)cc3)CC2)ccn1 (single isomer, unassigned) [Example 157d] : reported IC50 = ?
< 2 µM

Entry CC(C(=O)N[C@H]1CC[C@H](c2ccnc3ccc(F)cc32)CC1)c1ccc(Cl)cc1 (stereo partly shown) : reported IC50 = ?
< 2 µM

Entry CC[C@@H](NC(=O)c1ccc(Cl)cc1)[C@H]1CC[C@H](c2cnc3ccccc3c2)CC1 (single isomer, unassigned) [Example 203c] : reported IC50 = ?
< 0.05 µM

###

Target: human IDO1/HEK293 cells (Homo sapiens)
Experiment: HEK Human IDO-1 cell-based IDO inhibition assay (kynurenine production)
Conditions: HEK293 cells stably expressing human IDO1, 20 hours incubation, absorbance at 490 nm; read-out: HEK Human IDO-1 Bio Activity (IDO IC50)
observed.property: IC50

Please provide the recorded IC50 for C=CC[C@@H](NC(=O)c1ccc(Cl)cc1)[C@H]1CC[C@@H](c2ccnc3ccc(F)cc32)CC1 [Example 198] , tested on human IDO1/HEK293 cells (Homo sapiens).
< 50 nM

Please provide the recorded IC50 for O=C(Nc1ccc(F)c(F)c1)N[C@H]1CC[C@H](c2ccnc3ccc(F)cc32)CC1 [Example 123] , tested on human IDO1/HEK293 cells (Homo sapiens).
< 250 nM

Please provide the recorded IC50 for Cc1nccc(O[C@H]2CC[C@H](C(C)NC(=O)c3ccc(Cl)cc3)CC2)c1Cl (mixture of isomers) [Example 207] , tested on human IDO1/HEK293 cells (Homo sapiens).
< 50 nM

Please provide the recorded IC50 for COc1ccc(C(=O)NC(C)C2CCC(Oc3ccnc(C)c3Cl)CC2)cc1 (racemic) [Example 209] , tested on human IDO1/HEK293 cells (Homo sapiens).
< 250 nM

Please provide the recorded IC50 for Cc1ccccc1C(=O)N[C@H](C)[C@H]1CC[C@@H](c2ccnc3ccc(F)cc32)CC1 [Example 49] , tested on human IDO1/HEK293 cells (Homo sapiens).
< 50 nM

Please provide the recorded IC50 for CCC(NC(=O)c1ccc(Cl)cc1)[C@H]1CC[C@H](Oc2ccnc3ccccc23)CC1 (mixture of isomers) [Example 71] , tested on human IDO1/HEK293 cells (Homo sapiens).
< 50 nM

Please provide the recorded IC50 for C[C@@H](NC(=O)c1ccc(Cl)cc1)[C@H]1CC[C@@H](c2ccnc3ccc(F)cc32)CC1 [Example 47] , tested on human IDO1/HEK293 cells (Homo sapiens).
< 50 nM

Please provide the recorded IC50 for O=C(Nc1ccc(Cl)cc1)[C@H]1CC[C@@H](c2ccnc3ccc(F)cc32)CC1 [Example 76] , tested on human IDO1/HEK293 cells (Homo sapiens).
< 2000 nM

Please provide the recorded IC50 for Cc1c(C2CCC(C(C)NC(=O)c3ccc(-c4ccccc4)cc3)CC2)ccnc1F (single isomer, unassigned) [Example 224] , tested on human IDO1/HEK293 cells (Homo sapiens).
< 250 nM

Please provide the recorded IC50 for Cc1c(C2CCC(C(C)NC(=O)c3ccc(-c4ccccc4)cc3)CC2)ccnc1F (stereo not shown) [Example 221] , tested on human IDO1/HEK293 cells (Homo sapiens).
< 50 nM

Please provide the recorded IC50 for CCC(NC(=O)c1ccc(OC)nc1)[C@H]1CC[C@@H](c2ccnc3ccc(C(F)(F)F)cc32)CC1 (stereo partly shown) [Example 256] , tested on human IDO1/HEK293 cells (Homo sapiens).
< 50 nM

Please provide the recorded IC50 for O=C(Cc1ccc(Cl)cc1)N[C@H]1CC[C@H](c2ccnc3ccc(F)cc32)CC1 [Example 144] , tested on human IDO1/HEK293 cells (Homo sapiens).
< 2000 nM

Please provide the recorded IC50 for O=C(NCC1CCN(c2ccnc3ccc(F)cc23)CC1)c1ccc(Cl)cc1 [Example 88] , tested on human IDO1/HEK293 cells (Homo sapiens).
< 2000 nM

Please provide the recorded IC50 for Cc1cnccc1C1CCC(C(C)NC(=O)c2ccc(Cl)cc2)CC1 (stereo not shown) [Example 160a] , tested on human IDO1/HEK293 cells (Homo sapiens).
< 50 nM

Please provide the recorded IC50 for C[C@@H](NC(=O)c1ccccc1)[C@H]1CC[C@@H](c2ccnc3ccc(F)cc32)CC1 [Example 48] , tested on human IDO1/HEK293 cells (Homo sapiens).
< 50 nM

Please provide the recorded IC50 for Cc1ccc(NC(=O)NC2CCN(c3ccnc4ccc(F)cc34)CC2)cc1 [Example 91] , tested on human IDO1/HEK293 cells (Homo sapiens).
< 250 nM

Please provide the recorded IC50 for O=C(O)Cc1ccc(CN[C@H]2CC[C@H](c3ccnc4ccc(F)cc43)CC2)cc1 [Example 139] , tested on human IDO1/HEK293 cells (Homo sapiens).
< 2000 nM

Please provide the recorded IC50 for Cc1nccc(C2CCC(C(C)NC(=O)c3ccc(Cl)cc3)CC2)c1C (stereo not shown) [Example 159a] , tested on human IDO1/HEK293 cells (Homo sapiens).
< 50 nM

Please provide the recorded IC50 for O=C(NCC1CCN(c2ccnc3ccc(F)cc23)CC1)c1ccc(Cl)c(Cl)c1 [Example 87] , tested on human IDO1/HEK293 cells (Homo sapiens).
< 250 nM

Please provide the recorded IC50 for Cc1ccc(S(=O)(=O)N[C@H](C)[C@H]2CC[C@@H](c3ccnc4ccc(F)cc43)CC2)cc1 [Example 41] , tested on human IDO1/HEK293 cells (Homo sapiens).
< 250 nM

Please provide the recorded IC50 for C[C@@H](NC(=O)c1ccccc1Cl)[C@H]1CC[C@@H](c2ccnc3ccc(F)cc32)CC1 [Example 56] , tested on human IDO1/HEK293 cells (Homo sapiens).
< 50 nM

Please provide the recorded IC50 for O=C(Nc1ccc(F)cc1)N[C@H]1CC[C@H](c2ccnc3ccc(F)cc32)CC1 [Example 124] , tested on human IDO1/HEK293 cells (Homo sapiens).
< 50 nM

Please provide the recorded IC50 for Cc1cc(C2CCC(C(C)NC(=O)c3ccc(Cl)cc3)CC2)ccn1 (single isomer, unassigned) [Example 157e] , tested on human IDO1/HEK293 cells (Homo sapiens).
< 2000 nM

Please provide the recorded IC50 for O=C(NCC1CCN(c2ccnc3ccc(F)cc23)CC1)c1ccc(F)cc1 [Example 89] , tested on human IDO1/HEK293 cells (Homo sapiens).
< 250 nM

Please provide the recorded IC50 for Cc1nccc(OC2CCC(C(C)NC(=O)c3ccc(F)cc3)CC2)c1Cl (racemic) [Example 208] , tested on human IDO1/HEK293 cells (Homo sapiens).
< 250 nM

Please provide the recorded IC50 for Cc1nnc(-c2ccc(C(=O)N[C@H](C)[C@H]3CC[C@@H](c4ccnc5ccc(F)cc54)CC3)cc2)o1 [Example 232] , tested on human IDO1/HEK293 cells (Homo sapiens).
< 250 nM

Please provide the recorded IC50 for C[C@@H](NC(=O)c1ccc(-c2cnccn2)cc1)[C@H]1CC[C@@H](c2ccnc3ccc(F)cc32)CC1 [Example 233] , tested on human IDO1/HEK293 cells (Homo sapiens).
< 50 nM

Please provide the recorded IC50 for CC(NC(=O)c1ccc(Cl)cc1)C1CCC(c2ccnc(C(F)(F)F)c2)CC1 (single isomer, unassigned) [Example 214] , tested on human IDO1/HEK293 cells (Homo sapiens).
< 250 nM

Please provide the recorded IC50 for C[C@@H](NC(=O)c1ccc(-n2cccc2)cc1)[C@H]1CC[C@@H](c2ccnc3ccc(F)cc32)CC1 [Example 195] , tested on human IDO1/HEK293 cells (Homo sapiens).
< 50 nM

Please provide the recorded IC50 for C[C@@H](NC(=O)c1ccccc1-c1ccccc1)[C@H]1CC[C@@H](c2ccnc3ccc(F)cc32)CC1 [Example 69] , tested on human IDO1/HEK293 cells (Homo sapiens).
< 50 nM

Please provide the recorded IC50 for COc1ccc(S(=O)(=O)N[C@H](C)[C@H]2CC[C@@H](c3ccnc4ccc(F)cc43)CC2)cc1 [Example 46] , tested on human IDO1/HEK293 cells (Homo sapiens).
< 2000 nM
